Taken from a melting point compilation (Tetko et al.; mined from patent text by program, amines drawn as free bases though some values may be those of a salt).

Experimental endpoint: melting point

Worked set:
response.value for CCOC(=O)C1(CCCC(=O)OC(C)(C)C)CCn2c(cc3ccccc32)C1=O (centres undefined) (field: melting point) = 104 °C

response.value for CCOc1cc(OC)ccc1C(CC(=O)Nc1cc(C(N)=O)ccc1C(C)(C)C)CC(C)C (centres undefined) (field: melting point) = 216 to 217 °C

response.value for C=CCn1c(=O)n(CCN2CCN(c3ccccc3OC)CC2)c(=O)c2cscc21 (field: melting point) = 131 to 132 °C

response.value for CCCCC1=C([N+](=O)[O-])C(c2cccc(Cl)c2Cl)c2c[nH]nc2N1 (centres undefined) (field: melting point) = 220 °C

Further cases:
response.value for Cc1c[nH]c(C)c1-c1nc2ccc(C(=O)c3ccccc3)cc2[nH]1 (field: melting point) = 207 to 214 °C

response.value for CC(C)(C)OC(=O)C1(O/N=C(\C(=O)O)c2csc(NC(c3ccccc3)(c3ccccc3)c3ccccc3)n2)CC1 (field: melting point) = 157 °C

response.value for CCOCCCCC(=O)c1ccc(S(C)=O)cc1 (centres undefined) (field: melting point) = 69 to 71 °C

response.value for COC(=O)C(N)(CF)Cc1ccc(O)cc1 (centres undefined) (field: melting point) = 130 °C

response.value for CC(C)(C)c1cc(CCc2ccccc2NC(=O)NCCc2ccc([N+](=O)[O-])cc2)cc(C(C)(C)C)c1O (field: melting point) = 134 to 136 °C

response.value for CC(CF)(CF)C(=O)C=Cc1ccccc1 (field: melting point) = 45 °C

response.value for N#CC(C(=O)C(F)(F)F)c1cccc(Cl)c1Cl (centres undefined) (field: melting point) = 74 to 75 °C

response.value for CCOC(=O)NC(=O)Nc1ccc(Cl)cc1C(=O)c1ccccc1F (field: melting point) = 208 to 209 °C

response.value for COc1ccc(C2=NN(Cc3cccnc3)C(=O)[C@H]3CC=CC[C@@H]23)cc1OC (relative stereo) (field: melting point) = 117 to 120 °C

response.value for CCCCCCCCCCCCCCCCOC(=O)Nc1ccc(NC(=O)NS(=O)(=O)c2ccc(OC)cc2)cc1 (field: melting point) = 185 °C

response.value for CN1CCc2ccc(C(=O)CCC(=O)N3CCC(c4ccc(Cl)cc4)CC3)cc2C1 (field: melting point) = 139 to 140 °C

response.value for CC(c1ccncn1)C(O)(Cn1cncn1)c1ccc(F)cc1F (centres undefined) (field: melting point) = 114 to 116 °C

response.value for Cc1ccc(S(=O)(=O)Cc2ccc([N+](=O)[O-])cc2)cc1 (field: melting point) = 188 to 190 °C

response.value for CN(C)C(=O)N(Cc1ccccc1)C(=O)c1cccc(-c2nc(=O)c3ccccc3s2)n1 (field: melting point) = 222 to 224 °C

response.value for CC(=O)c1cc(N2CCCC2)ccc1NC(=O)c1ccccc1OCc1ccccc1 (field: melting point) = 160 to 161 °C
